Kindly state log10 Ki for each of the entries shown.
test_target: UniProt P41144
assay_remarks: Binding affinity towards Opioid receptor kappa 1 in guinea pig brain membranes using [3H]U-69593 as radioligand
Assay type: cell membranes, Membrane
Hello, just confirming the data are log10 of Ki with units of nM.

>>> value_observed("CCOCCN1CC[C@]23CCCC[C@H]2[C@H]1Cc1cc(O)ccc13")
-0.48
>>> value_observed("Oc1ccc2c(c1)C[C@@H]1[C@@H]3CCCCC23CCN1CC1CCCCC1")
0.18
>>> value_observed("Oc1ccc2c(c1)C[C@@H]1[C@@H]3CCCC[C@]23CCN1CCCF")
-1.08
>>> value_observed("Oc1ccc2c(c1)C[C@@H]1[C@@H]3CCCCC23CCN1CC1CCCC1")
-0.68
>>> value_observed("CC(C)CN1CC[C@]23CCCC[C@H]2[C@H]1Cc1cc(O)ccc13")
-0.80

Could you now look at the following compound, please?
Sample `Oc1ccc2c(c1)[C@@]13CCCC[C@H]1[C@@H](C2)N(CC1CCC1)CC3` — what was its log10 Ki? -1.15

----------
Kindly state Ki for each of the entries shown.
test_target: Kappa-type opioid receptor (Cavia porcellus, UniProt P41144)
Sequence (P41144 whole entry): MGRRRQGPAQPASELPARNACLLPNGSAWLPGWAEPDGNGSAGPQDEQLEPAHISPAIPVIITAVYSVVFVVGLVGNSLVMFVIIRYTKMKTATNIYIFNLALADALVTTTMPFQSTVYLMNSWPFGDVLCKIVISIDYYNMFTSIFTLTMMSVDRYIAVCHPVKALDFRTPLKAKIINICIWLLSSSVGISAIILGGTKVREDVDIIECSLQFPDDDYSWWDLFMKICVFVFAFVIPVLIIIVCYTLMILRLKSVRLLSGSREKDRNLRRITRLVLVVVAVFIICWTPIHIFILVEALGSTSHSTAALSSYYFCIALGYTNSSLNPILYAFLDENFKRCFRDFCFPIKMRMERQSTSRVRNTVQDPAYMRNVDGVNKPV
assay_remarks: Binding affinity towards guinea pig Opioid receptor kappa 1 using radioligand [3H]U-69593
Give bare numbers, in nM.

>>> value_observed("COCCN1CC[C@]23CCCC[C@H]2[C@H]1Cc1cc(O)ccc13")
0.094
>>> value_observed("Oc1ccc2c(c1)C[C@@H]1[C@@H]3CCCC[C@]23CCN1CCC(F)(F)F")
1.3

Provide the reported Ki of each entry below, same order.
1. O=C(CCN1CC[C@]23CCCC[C@H]2[C@H]1Cc1cc(O)ccc13)c1ccco1
2. Oc1ccc2c(c1)C[C@@H]1[C@@H]3CCCC[C@]23CCN1CCC(O)c1ccccc1 (some centres undefined)
3. Oc1ccc2c(c1)C[C@@H]1[C@@H]3CCCC[C@]23CCN1Cc1ccco1
4. Oc1ccc2c(c1)C[C@@H]1[C@@H]3CCCC[C@]23CCN1CC=CI

7.9
57
0.13
0.65

Provide the reported Ki of each entry below, same order.
1. Oc1ccc2c(c1)C[C@@H]1[C@@H]3CCCC[C@]23CCN1C/C=C/I
2. Oc1ccc2c(c1)C[C@@H]1[C@@H]3CCCC[C@]23CCN1CCC(O)c1cccs1 (some centres undefined)
3. Oc1ccc2c(c1)C[C@@H]1[C@@H]3CCCCC23CCN1Cc1cccs1
4. N#CCCN1CC[C@]23CCCC[C@H]2[C@H]1Cc1cc(O)ccc13
5. O=C(CCN1CC[C@]23CCCC[C@H]2[C@H]1Cc1cc(O)ccc13)c1ccccc1
6. Oc1ccc2c(c1)C[C@@H]1[C@@H]3CCCC[C@]23CCN1CCOc1ccccc1

[0.037, 25, 0.32, 0.23, 9.9, 15]

Provide the reported Ki of each entry below, same order.
1. O=C(CCN1CC[C@]23CCCC[C@H]2[C@H]1Cc1cc(O)ccc13)c1cccs1
2. Oc1ccc2c(c1)C[C@@H]1[C@@H]3CCCC[C@]23CCN1CCc1ccccc1
3. C#CCN1CC[C@]23CCCC[C@H]2[C@H]1Cc1ccc(O)cc13

4.5
1.3
0.003

Provide the reported Ki of each entry below, same order.
1. N#CCCCN1CC[C@]23CCCC[C@H]2[C@H]1Cc1cc(O)ccc13
2. Oc1ccc2c(c1)C[C@@H]1[C@@H]3CCCC[C@]23CCN1Cc1ccccc1

[0.38, 1.9]

Provide the reported Ki of each entry below, same order.
1. C=CCN1CC[C@]23CCCC[C@H]2[C@H]1Cc1cc(O)ccc13
2. Oc1ccc2c(c1)C[C@@H]1[C@@H]3CCCC[C@]23CCN1CCC(O)c1ccco1 (some centres undefined)

1: 0.16; 2: 12
